// endpoint MIC / system Streptococcus pyrogens ATCC 19615

{"columns": ["compound", "assayedTarget", "MIC (µg/mL)"],
 "data": [
  ["CC1CN(c2cc3c(cc2F)c(=O)c(C(=O)O)cn3-c2ccncc2F)CC(C)N1.Cl (centres unmarked)", "Streptococcus pyrogens ATCC 19615", 10],
  ["Cl.O=C(O)c1cn(-c2ccc(F)cn2)c2c(F)c(N3CCNCC3)c(F)cc2c1=O", "Streptococcus pyrogens ATCC 19615", 5],
  ["Cl.NC1CCN(c2c(F)cc3c(=O)c(C(=O)O)cn(-c4ccc(F)cn4)c3c2F)C1 (centres unmarked)", "Streptococcus pyrogens ATCC 19615", 2.5],
  ["CC1CN(c2nc3c(cc2F)c(=O)c(C(=O)O)cn3-c2ccncc2F)CC(C)N1.Cl (centres unmarked)", "Streptococcus pyrogens ATCC 19615", 10],
  ["CN1CCN(c2cc3c(cc2F)c(=O)c(C(=O)O)cn3-c2ccc(F)cn2)CC1.Cl", "Streptococcus pyrogens ATCC 19615", 5],
  ["CC1CN(c2c(F)cc3c(=O)c(C(=O)O)cn(-c4ccc(F)cn4)c3c2F)CC(C)N1.Cl (centres unmarked)", "Streptococcus pyrogens ATCC 19615", 10],
  ["CC1CN(c2cc3c(cc2F)c(=O)c(C(=O)O)cn3-c2ccc(F)cn2)CCN1.Cl (centres unmarked)", "Streptococcus pyrogens ATCC 19615", 10],
  ["CC1CN(c2cc3c(cc2F)c(=O)c(C(=O)O)cn3-c2ccc(F)cn2)CC(C)N1.Cl (centres unmarked)", "Streptococcus pyrogens ATCC 19615", 10]
]}

----------
Assay: Pharmacokinetic properties in ICR mouse, oral and subcutaneous, Bio-Assay (Agar well method)
Assay type: in vivo
Settings: urine, sc, S.C, 40 mg/kg, average of four tests, read-out: Urine Recovery
Decision: dose excreted compared against 20%; not below it gives condition met, below it gives condition not met.

{"columns": ["compound", "assignedLabel"],
 "data": [
  ["CC1CN(c2nc3c(cc2F)c(=O)c(C(=O)O)cn3-c2ccc(F)cn2)CCN1.Cl (stereo not shown)", "condition met"],
  ["Cc1c(F)c(N2CCNC(C)C2)cc2c1c(=O)c(C(=O)O)cn2-c1ccc(F)cn1.Cl (stereo not shown)", "condition not met"],
  ["CC1COc2c(N3CCN(C)CC3)c(F)cc3c(=O)c(C(=O)O)cn1c23 (stereo not shown) [Ofloxacin, reference compound]", "condition met"],
  ["Cc1c(F)c(N2CCN(C)CC2)cc2c1c(=O)c(C(=O)O)cn2-c1ccc(F)cn1.Cl", "condition not met"],
  ["CC1CN(c2cc3c(cc2F)c(=O)c(C(=O)O)cn3-c2ccc(F)cn2)CCN1.Cl (stereo not shown)", "condition met"],
  ["CN1CCN(c2cc3c(cc2F)c(=O)c(C(=O)O)cn3-c2ccc(F)cn2)CC1.Cl", "condition met"],
  ["CN1CCN(c2nc3c(cc2F)c(=O)c(C(=O)O)cn3-c2ccc(F)cn2)CC1.Cl", "condition met"]
]}

----------
Assay: Pharmacokinetic properties in ICR mouse, oral and subcutaneous, Bio-Assay (Agar well method)
Format: in vivo
Conditions: blood, sc, S.C, 40 mg/kg, average of four tests
Listed next: entries and their corresponding Tmax.

{"columns": ["compound", "Tmax / min"],
 "data": [
  ["CC1CN(c2nc3c(cc2F)c(=O)c(C(=O)O)cn3-c2ccc(F)cn2)CCN1.Cl (stereo not shown)", 36],
  ["Cc1c(F)c(N2CCN(C)CC2)cc2c1c(=O)c(C(=O)O)cn2-c1ccc(F)cn1.Cl", 60],
  ["CC1CN(c2cc3c(cc2F)c(=O)c(C(=O)O)cn3-c2ccc(F)cn2)CCN1.Cl (stereo not shown)", 52.2],
  ["CN1CCN(c2nc3c(cc2F)c(=O)c(C(=O)O)cn3-c2ccc(F)cn2)CC1.Cl", 48.6],
  ["CN1CCN(c2cc3c(cc2F)c(=O)c(C(=O)O)cn3-c2ccc(F)cn2)CC1.Cl", 60],
  ["CC1COc2c(N3CCN(C)CC3)c(F)cc3c(=O)c(C(=O)O)cn1c23 (stereo not shown) [Ofloxacin, reference compound]", 25.2],
  ["Cc1c(F)c(N2CCNC(C)C2)cc2c1c(=O)c(C(=O)O)cn2-c1ccc(F)cn1.Cl (stereo not shown)", 75]
]}

----------
Each entry below carries its reported MIC.
Tested on: Streptococcus faecalis ATCC 19433
measure: MIC

{"columns": ["molecule", "val"],
 "data": [
  ["Cl.O=C(O)c1cn(-c2ccc(F)cn2)c2cc(N3CCNCC3)c(F)cc2c1=O", "5 µg/mL"],
  ["Cl.N[C@H]1CCN(c2nc3c(cc2F)c(=O)c(C(=O)O)cn3-c2ccncc2F)C1", "0.625 µg/mL"],
  ["CN1CCN(c2c(F)cc3c(=O)c(C(=O)O)cn(-c4ccc(F)cn4)c3c2F)CC1.Cl", "5 µg/mL"],
  ["CC1CN(c2c(F)cc3c(=O)c(C(=O)O)cn(-c4ccc(F)cn4)c3c2F)CCN1.Cl (stereo not shown)", "5 µg/mL"],
  ["CC1CN(c2cc3c(cc2F)c(=O)c(C(=O)O)cn3-c2ccncc2F)CCN1.Cl (stereo not shown)", "2.5 µg/mL"],
  ["Cl.NC1CCN(c2nc3c(cc2F)c(=O)c(C(=O)O)cn3-c2ccc(F)cn2)C1 (stereo not shown)", "1.25 µg/mL"],
  ["CC1CN(c2nc3c(cc2F)c(=O)c(C(=O)O)cn3-c2ccc(F)cn2)CCN1.Cl (stereo not shown)", "5 µg/mL"],
  ["Cl.O=C(O)c1cn(-c2ccc(F)cn2)c2nc(N3CCNCC3)c(F)cc2c1=O", "5 µg/mL"],
  ["N[C@H]1CCN(c2cc3c(cc2F)c(=O)c(C(=O)O)cn3-c2ccncc2F)C1", "1.25 µg/mL"],
  ["CC1CN(c2cc3c(cc2F)c(=O)c(C(=O)O)cn3-c2ccc(F)cn2)CC(C)N1.Cl (stereo not shown)", "5 µg/mL"],
  ["CN1CCN(c2nc3c(cc2F)c(=O)c(C(=O)O)cn3-c2ccncc2F)CC1.Cl", "5 µg/mL"],
  ["CC1CN(c2cc3c(cc2F)c(=O)c(C(=O)O)cn3-c2ccncc2F)CC(C)N1.Cl (stereo not shown)", "5 µg/mL"],
  ["CC1CN(c2cc3c(cc2F)c(=O)c(C(=O)O)cn3-c2ccc(F)cn2)CCN1.Cl (stereo not shown)", "5 µg/mL"]
]}

----------
Test: Pharmacokinetic properties in ICR mouse, oral and subcutaneous, Bio-Assay (Agar well method)
Format: in vivo
Settings: urine, po, P.O, 40 mg/kg, average of four tests, read-out: Urine Recovery
Lab note: cut-off is 30%. Strictly less in dose excreted is Y. Exactly 30% or more is N.

{"columns": ["compound", "assignedLabel"],
 "data": [
  ["CC1CN(c2nc3c(cc2F)c(=O)c(C(=O)O)cn3-c2ccc(F)cn2)CCN1.Cl (stereo not shown)", "N"],
  ["CN1CCN(c2cc3c(cc2F)c(=O)c(C(=O)O)cn3-c2ccc(F)cn2)CC1.Cl", "Y"],
  ["CN1CCN(c2nc3c(cc2F)c(=O)c(C(=O)O)cn3-c2ccc(F)cn2)CC1.Cl", "Y"],
  ["Cc1c(F)c(N2CCN(C)CC2)cc2c1c(=O)c(C(=O)O)cn2-c1ccc(F)cn1.Cl", "Y"],
  ["Cc1c(F)c(N2CCNC(C)C2)cc2c1c(=O)c(C(=O)O)cn2-c1ccc(F)cn1.Cl (stereo not shown)", "Y"],
  ["CC1CN(c2cc3c(cc2F)c(=O)c(C(=O)O)cn3-c2ccc(F)cn2)CCN1.Cl (stereo not shown)", "Y"],
  ["CC1COc2c(N3CCN(C)CC3)c(F)cc3c(=O)c(C(=O)O)cn1c23 (stereo not shown) [Ofloxacin, reference compound]", "N"]
]}

----------
Test system: Citrobacter freundii ATCC 8090
Assay: MIC, 2-fold dilution method in micro-well plate, C. freundii
Assay type: cell-based
Details: C. freundii ATCC8090, 37° C., read-out: Minimum Inhibitory Concentration
Note to self: MIC under 1 µg/mL means fulfilled, ties and anything higher get not fulfilled.

{"columns": ["compound", "assayedTarget", "assignedLabel"],
 "data": [
  ["Cl.NC1CCN(c2cc3c(cc2F)c(=O)c(C(=O)O)cn3-c2ccc(F)cn2)C1 (centres unmarked)", "Citrobacter freundii ATCC 8090", "fulfilled"],
  ["Cl.N[C@H]1CCN(c2cc3c(cc2F)c(=O)c(C(=O)O)cn3-c2ccc(F)cn2)C1", "Citrobacter freundii ATCC 8090", "fulfilled"],
  ["Cl.O=C(O)c1cn(-c2ccncc2F)c2nc(N3CCNCC3)c(F)cc2c1=O", "Citrobacter freundii ATCC 8090", "not fulfilled"],
  ["CC1CN(c2nc3c(cc2F)c(=O)c(C(=O)O)cn3-c2ccc(F)cn2)CCN1.Cl (centres unmarked)", "Citrobacter freundii ATCC 8090", "fulfilled"],
  ["Cl.NC1CCN(c2nc3c(cc2F)c(=O)c(C(=O)O)cn3-c2ccc(F)cn2)C1 (centres unmarked)", "Citrobacter freundii ATCC 8090", "fulfilled"],
  ["CC1CN(c2cc3c(cc2F)c(=O)c(C(=O)O)cn3-c2ccc(F)cn2)CCN1.Cl (centres unmarked)", "Citrobacter freundii ATCC 8090", "not fulfilled"],
  ["CC1CN(c2nc3c(cc2F)c(=O)c(C(=O)O)cn3-c2ccncc2F)CC(C)N1.Cl (centres unmarked)", "Citrobacter freundii ATCC 8090", "not fulfilled"],
  ["CN1CCN(c2nc3c(cc2F)c(=O)c(C(=O)O)cn3-c2ccncc2F)CC1.Cl", "Citrobacter freundii ATCC 8090", "not fulfilled"],
  ["Cc1c(F)c(N2CCN(C)CC2)cc2c1c(=O)c(C(=O)O)cn2-c1ccc(F)cn1.Cl", "Citrobacter freundii ATCC 8090", "not fulfilled"],
  ["Cl.O=C(O)c1cn(-c2ccncc2F)c2cc(N3CCNCC3)c(F)cc2c1=O", "Citrobacter freundii ATCC 8090", "not fulfilled"],
  ["Cl.NC1CCN(c2c(F)cc3c(=O)c(C(=O)O)cn(-c4ccc(F)cn4)c3c2F)C1 (centres unmarked)", "Citrobacter freundii ATCC 8090", "fulfilled"]
]}

FYI, the data here is from patent US5496947A.
